Values compiled from the supplement of paper PMC6555819.

System: RARg:RXRa (NR concentration 270 nM, RXRa partner concentration 90 nM)
Assay: PBM binding z-score (relative to random genomic background probes); higher = stronger binding; sequences stand for … in GC…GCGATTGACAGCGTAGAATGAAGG
READOUT_TYPE: PBM binding z-score
Output spec: single numeric token, no unit.

Please review the entries below; each comes with its answer.
RESIDUE_SEQUENCE	PBM binding z-score
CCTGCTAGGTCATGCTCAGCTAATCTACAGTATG	3.89
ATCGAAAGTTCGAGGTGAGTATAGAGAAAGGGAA	1.69
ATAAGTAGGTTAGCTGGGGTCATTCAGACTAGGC	4.16
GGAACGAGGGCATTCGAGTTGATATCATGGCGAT	1.25
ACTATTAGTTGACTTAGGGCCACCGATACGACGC	0.549
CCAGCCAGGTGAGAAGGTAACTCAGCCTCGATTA	0.0253

In the following, a different sequence is considered.
Please give the measured PBM binding z-score for this sequence: `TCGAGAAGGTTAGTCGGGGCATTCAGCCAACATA`
0.634
